Target: CDK2 (Homo sapiens, UniProt P24941)
Construct: endogenous in cells; host or cells: MKN1 cells
Test: CDK2 degradation in MKN1 cells (AlphaLISA)
Assay type: cell-based
Conditions: 14 h incubation
MEASURE: CDK2 degradation 14 h: Average Dmax %

Take a look at these entries with their results.
[
  {
    "COMPOUND": "Cc1cc(S(=O)(=O)[C@H]2CC[C@H](CN(C)C3CCN(c4cccc5c4n(C)c(=O)n5C4CCC(=O)NC4=O)CC3)CC2)ccc1Nc1ncc2ccc(=O)n(C3CCCC3)c2n1 (stereo partly shown)",
    "VALUE OBSERVED": "A (A (>75% o))"
  },
  {
    "COMPOUND": "Cn1c(=O)n(C2CCC(=O)NC2=O)c2cccc(CCCOCCOCCOCCOCC(=O)N3CCC(Nc4ncc5cc(C(F)F)c(=O)n([C@@H]6CCC[C@]6(C)O)c5n4)CC3)c21 (stereo partly shown)",
    "VALUE OBSERVED": "D (D (<25%))"
  },
  {
    "COMPOUND": "Cc1nn(C2CCC(=O)NC2=O)c2ccc(N3CCN(CC4CCC(NS(=O)(=O)c5ccc(Nc6ncc(C(F)(F)F)c(N7CCCC(C)(O)C7)n6)c(F)c5)CC4)CC3)cc12 (stereo not shown)",
    "VALUE OBSERVED": "A (A (>75% o))"
  },
  {
    "COMPOUND": "Cc1cc(S(=O)(=O)C2CC3(CCN(CC4CCN(c5ccc6c(c5F)n(C)c(=O)n6C5CCC(=O)NC5=O)CC4)CC3)C2)ccc1Nc1ncc2c(n1)N(C1CCCC(O)C1)C(=O)C21CC1 (stereo not shown)",
    "VALUE OBSERVED": "A (A (>75% o))"
  },
  {
    "COMPOUND": "Cc1cc(S(=O)(=O)C2CC3(CCN(CC4CCN(c5ccc(F)c(NC6CCC(=O)NC6=O)c5)CC4)CC3)C2)ccc1Nc1ncc2cc(Cl)c(=O)n(C3CCCC3)c2n1 (stereo not shown)",
    "VALUE OBSERVED": "B (B (>50% -75%))"
  },
  {
    "COMPOUND": "Cc1cc(S(=O)(=O)C2CC(N3CCC4(CC3)CN(c3cccc5c3n(C)c(=O)n5C3CCC(=O)NC3=O)C4)C2)ccc1Nc1ncc2cc(Cl)c(=O)n(C3CCCC3)c2n1 (stereo not shown)",
    "VALUE OBSERVED": "B (B (>50% -75%))"
  }
]

Challenge: Consider the compound Cc1cc(S(=O)(=O)C2CC3(CCN(CC4CCN(c5cccc6c5n(C)c(=O)n6C5CCC(=O)NC5=O)CC4)CC3)C2)ccc1Nc1ncc(C(F)(F)F)c(C2CCC(C)(O)CC2)n1 (stereo not shown) and give its measured CDK2 degradation 14 h: Average Dmax %.
Response given: A (A (>75% o))

Challenge: Also check Cc1cc(S(=O)(=O)NCCCCCCc2cccc3c2n(C)c(=O)n3C2CCC(=O)NC2=O)ccc1Nc1ncc2cc(C(F)F)c(=O)n(C3CCCC3(C)O)c2n1 (stereo not shown)
Response given: B (B (>50% -75%))

Challenge: Also check Cc1cc(S(=O)(=O)N2CCC(OCCCc3ccc4c(c3)n(C)c(=O)n4C3CCC(=O)NC3=O)CC2)ccc1Nc1ncc2ccc(=O)n(C3CCCC3)c2n1 (stereo not shown)
Response given: D (D (<25%))

Challenge: Also check Cc1cc(S(=O)(=O)NC2CCC(CN3CCN(c4cc(NC5CCC(=O)NC5=O)ccc4F)CC3)CC2)ccc1Nc1ncc(C(F)(F)F)c(N2CCCC(C)(O)C2)n1 (stereo not shown)
Response given: A (A (>75% o))
